Catalogue of pIC50 values
- System: BXPC-3
- Method notes: Cytotoxicity against human BXPC-3 cells assessed as inhibition of cell growth incubated for 24 hrs by MTT assay
- Type: functional, cell-based
- Condition description: BXPC-3, 24 h
# pIC50 = -log10(concentration in molar units)

Chem smiles	pIC50
CC[C@H](C)[C@@H]1NC(=O)[C@H](c2cc(O)c(C)c(O)c2)NC(=O)[C@H](NC(=O)[C@H](C)NC(=O)[C@H](NC(=O)CC(=O)[C@@H](C)C[C@@H](C)C[C@@H](C)[C@H](O)[C@@H](C)[C@@H](O)CC)[C@@H](C)O)[C@@H](C)NC(=O)CNC1=O	4.52
CC[C@H](C)[C@@H]1NC(=O)[C@H](c2cc(O)c(C)c(O)c2)NC(=O)[C@H](NC(=O)[C@H](C)NC(=O)[C@H](NC(=O)CC(=O)[C@@H](C)C[C@@H](C)C[C@@H](C)[C@H](O)[C@@H](CO)[C@@H](O)CC)[C@@H](C)O)[C@@H](C)NC(=O)CNC1=O	5.09
CC[C@H](C)[C@@H]1NC(=O)[C@H](c2cc(O)c(C)c(O)c2)NC(=O)[C@H](NC(=O)[C@H](C)NC(=O)[C@H](NC(=O)CC(=O)[C@@H](C)C[C@@H](C)C[C@@H](C)[C@H](O)[C@@H](C)C(=O)[C@@H](C)O)[C@@H](C)O)[C@@H](C)NC(=O)CNC1=O	5.64

Data request: Please state recorded pIC50 (tested on BXPC-3) of `CCC(=O)[C@H](C)[C@@H](O)[C@H](C)C[C@H](C)C[C@H](C)C(=O)CC(=O)N[C@@H](C(=O)N[C@@H](C)C(=O)N[C@H]1C(=O)N[C@@H](c2cc(O)c(C)c(O)c2)C(=O)N[C@@H]([C@@H](C)CC)C(=O)NCC(=O)N[C@@H]1C)[C@@H](C)O`
Data returned: 5.14

* * *

- Tested on: PANC-1
- Method notes: Cytotoxicity against human PANC-1 cells assessed as inhibition of cell growth incubated for 24 hrs by MTT assay
- Type: functional, cell-based
- Condition description: PANC-1, 24 h
pIC50: −log10 of the molar value.
Property label: pIC50

Please review the following examples before continuing.
Chem smiles	System under test	pIC50
CC[C@H](C)[C@@H]1NC(=O)[C@H](c2cc(O)c(C)c(O)c2)NC(=O)[C@H](NC(=O)[C@H](C)NC(=O)[C@H](NC(=O)CC(=O)[C@@H](C)C[C@@H](C)C[C@@H](C)[C@H](O)[C@@H](C)[C@@H](O[C@@H]2O[C@H](CO)[C@@H](OC)[C@H](O)[C@H]2O)[C@@H](C)O)[C@@H](C)O)[C@@H](C)NC(=O)CNC1=O	PANC-1	< 4.00
CCC[C@H](C)[C@@H](O)[C@H](C)C[C@H](C)C[C@H](C)C(=O)CC(=O)N[C@@H](C(=O)N[C@@H](C)C(=O)N[C@H]1C(=O)N[C@@H](c2cc(O)c(C)c(O)c2)C(=O)N[C@@H]([C@@H](C)CC)C(=O)NCC(=O)N[C@@H]1C)[C@@H](C)O	PANC-1	< 4.00

Data request: I am curious: what pIC50 value has been reported for `CC[C@H](C)[C@@H]1NC(=O)[C@H](c2cc(O)c(C)c(O)c2Cl)NC(=O)[C@H](NC(=O)[C@H](C)NC(=O)[C@H](NC(=O)CC(=O)[C@@H](C)C[C@@H](C)C[C@@H](C)[C@H](O)[C@@H](C)[C@@H](O[C@@H]2O[C@H](CO)[C@@H](OC)[C@H](O)[C@H]2O)[C@@H](C)O)[C@@H](C)O)[C@@H](C)NC(=O)CNC1=O` ?
Data returned: < 4.00
